Subject of test: Neuraminidase (Influenza A virus, UniProt B4URF0)
Sequence (B4URF0 whole entry): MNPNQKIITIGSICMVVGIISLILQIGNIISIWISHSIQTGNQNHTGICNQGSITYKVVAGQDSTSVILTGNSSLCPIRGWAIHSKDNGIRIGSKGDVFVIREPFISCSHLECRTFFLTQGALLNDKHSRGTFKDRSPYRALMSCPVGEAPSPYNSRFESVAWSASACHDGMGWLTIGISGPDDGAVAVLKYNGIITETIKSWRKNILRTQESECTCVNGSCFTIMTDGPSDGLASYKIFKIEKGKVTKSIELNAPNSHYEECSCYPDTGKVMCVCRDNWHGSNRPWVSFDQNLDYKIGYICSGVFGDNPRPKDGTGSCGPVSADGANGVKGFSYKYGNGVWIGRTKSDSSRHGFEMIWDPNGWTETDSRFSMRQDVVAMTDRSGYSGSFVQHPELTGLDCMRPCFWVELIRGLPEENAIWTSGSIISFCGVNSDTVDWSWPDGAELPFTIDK
Attribute measured: IC50

| Smi | Value reported |
| --- | --- |
| CC(=O)N[C@@H]1C[C@@H](F)[C@](F)(C(=O)O)O[C@H]1[C@H](O)[C@H](O)CO | 1.4 µM |

The recorded IC50 for CC(=O)N[C@@H]1[C@@H](O)[C@@H](F)[C@](F)(C(=O)O)O[C@H]1[C@H](O)CCO is 17 µM

----------
Subject of test: Neuraminidase (Influenza B virus)
Sequence (Q3S340 whole entry): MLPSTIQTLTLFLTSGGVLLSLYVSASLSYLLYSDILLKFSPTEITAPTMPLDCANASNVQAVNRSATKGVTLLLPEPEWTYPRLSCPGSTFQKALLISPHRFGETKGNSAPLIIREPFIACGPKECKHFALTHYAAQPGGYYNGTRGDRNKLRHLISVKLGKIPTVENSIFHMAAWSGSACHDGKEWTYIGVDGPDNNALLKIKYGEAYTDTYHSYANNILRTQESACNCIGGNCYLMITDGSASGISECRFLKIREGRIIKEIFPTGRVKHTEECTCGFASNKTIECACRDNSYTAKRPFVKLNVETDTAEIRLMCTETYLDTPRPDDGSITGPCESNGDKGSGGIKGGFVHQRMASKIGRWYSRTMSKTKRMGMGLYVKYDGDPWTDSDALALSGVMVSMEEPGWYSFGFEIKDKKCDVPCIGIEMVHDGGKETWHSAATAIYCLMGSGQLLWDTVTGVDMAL
Set-up: species or system Influenza B virus (B/Perth/211/2001)
pIC50: −log10 of the molar value.
Class 1 (yes): pIC50 at least 6. Class 0 (no): pIC50 below 6.

Check out these entries, answers already filled in.
| Smi | Label |
| --- | --- |
| CC(=O)N[C@@H]1[C@@H](O)[C@@H](F)[C@](F)(C(=O)O)O[C@H]1[C@H](O)[C@@H](C)O | 0 (no) |
| CC(=O)N[C@@H]1[C@@H](O)[C@@H](F)[C@](F)(C(=O)O)O[C@H]1[C@H](O)CCO | 0 (no) |
| CC(=O)N[C@@H]1[C@@H](O)[C@@H](F)[C@](F)(C(=O)O)O[C@H]1C[C@H](O)CO | 1 (yes) |
| CC(=O)N[C@@H]1[C@@H](O)[C@@H](F)[C@](F)(C(=O)O)O[C@H]1[C@H](O)[C@H](O)CO | 1 (yes) |

Now consider the entry below.
Identify whether the reported pIC50 of the following compound is 6 or greater: CC(=O)N[C@@H]1C[C@@H](F)[C@](F)(C(=O)O)O[C@H]1[C@H](O)[C@H](O)CO 1 (yes)
